molecular target: UniProt Q92769; test: Inhibition of recombinant full-length human HDAC2 using RHKK(Ac) as substrate measured after 2 hrs by fluorescence assay
ASSAY READOUT: pIC50
Answer as the number alone; pIC50 is minus log10 of concentration in mol/L.

// recorded pIC50 for O=C(/C=C/c1cccn(CCc2ccc3ccccc3c2)c1=O)NO : 6.25

----------
target: Histone deacetylase 5 (Homo sapiens); test: Inhibition of human HDAC5 using fluorogenic HDAC substrate
Sequence (Q9UQL6 whole entry): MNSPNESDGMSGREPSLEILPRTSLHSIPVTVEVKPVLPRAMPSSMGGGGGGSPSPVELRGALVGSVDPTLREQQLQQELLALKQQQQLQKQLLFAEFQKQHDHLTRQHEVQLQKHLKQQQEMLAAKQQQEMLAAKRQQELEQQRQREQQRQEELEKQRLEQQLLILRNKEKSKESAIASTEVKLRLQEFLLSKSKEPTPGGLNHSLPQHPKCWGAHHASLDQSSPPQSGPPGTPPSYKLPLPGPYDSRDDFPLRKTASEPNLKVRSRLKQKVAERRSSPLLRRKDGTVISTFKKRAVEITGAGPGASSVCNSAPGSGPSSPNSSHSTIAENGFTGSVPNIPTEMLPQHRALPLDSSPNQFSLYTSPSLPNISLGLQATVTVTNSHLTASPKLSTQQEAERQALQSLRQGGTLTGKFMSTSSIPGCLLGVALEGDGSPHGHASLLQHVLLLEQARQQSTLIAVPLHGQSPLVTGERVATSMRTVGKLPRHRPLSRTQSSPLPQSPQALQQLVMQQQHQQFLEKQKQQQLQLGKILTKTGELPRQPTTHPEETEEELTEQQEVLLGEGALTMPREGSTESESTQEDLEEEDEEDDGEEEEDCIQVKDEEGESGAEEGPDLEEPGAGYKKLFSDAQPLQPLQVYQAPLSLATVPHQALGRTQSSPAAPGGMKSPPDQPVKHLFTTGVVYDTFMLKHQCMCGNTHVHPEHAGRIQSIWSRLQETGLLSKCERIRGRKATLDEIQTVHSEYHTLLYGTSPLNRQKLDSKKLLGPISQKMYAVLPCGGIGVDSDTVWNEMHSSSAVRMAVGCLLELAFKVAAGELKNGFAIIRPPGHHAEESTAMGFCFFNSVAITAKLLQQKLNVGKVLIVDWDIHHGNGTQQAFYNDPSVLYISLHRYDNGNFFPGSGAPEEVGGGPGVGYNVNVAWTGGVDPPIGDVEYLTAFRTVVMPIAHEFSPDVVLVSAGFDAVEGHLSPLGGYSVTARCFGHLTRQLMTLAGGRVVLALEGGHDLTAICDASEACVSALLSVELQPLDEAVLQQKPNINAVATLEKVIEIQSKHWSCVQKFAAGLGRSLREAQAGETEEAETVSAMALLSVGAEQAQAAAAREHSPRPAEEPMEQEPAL
pIC50: −log10 of the molar value.
Kindly return class 1 if reported pIC50 is no lower than 5; return class 0 if it is lower.

Observe how each entry below is paired with its result.
{"columns": ["COMPOUND", "CATEGORY LABEL"],
 "data": [
  ["O=C(NO)c1ccc(Cn2c3c(c4cc(F)ccc42)C[S+]([O-])CC3)cc1 (stereo not given)", "class 1"],
  ["O=C(NO)c1ccc(Cn2c3c(c4cc(F)ccc42)CS(=O)(=O)CC3)cc1", "class 1"],
  ["O=C(NO)c1ccc(CN2c3ccccc3C3C2CCS3(=O)=O)cc1 (stereo not given)", "class 1"]
]}

Incoming: Dear colleague, could you confirm whether O=C(NO)c1ccc(Cn2c3c(c4cc(F)ccc42)CSCC3)cc1 has pIC50 at or above 5?
Outgoing: class 1

Incoming: Answer whether pIC50 of O=C(NO)c1ccc(Cn2c3c(c4ccccc42)CS(=O)(=O)CC3)cc1 is greater than or equal to 5.
Outgoing: class 1

Incoming: Does pIC50 meet or surpass 5 for O=C(NO)c1ccc(CN2c3ccccc3C[C@@H]3CCCC[C@H]32)cc1 ?
Outgoing: class 0

Incoming: pIC50 >= 5 for O=C(NO)c1ccc(CN2c3ccccc3C[C@@H]3CCCCC[C@H]32)cc1 ?
Outgoing: class 0

Incoming: Check this compound for pIC50 at or above 5: O=C(NO)c1ccc(CN2c3cc(C(F)(F)F)ccc3CCC[C@@H]3CCCC[C@H]32)cc1
Outgoing: class 0

----------
Recorded IC50 values (Histone deacetylase 2 (Homo sapiens, UniProt Q92769)) are given below.
Hi! Could you send only the number? It should be in nM, unit omitted.

Recorded results for 3 compounds are shown here.
{"columns": ["STRUCTURE AS SMILES", "IC50 [nM]"],
 "data": [
  ["O=C(CCCCCCCNC(=O)c1c(-c2ccc(O)cc2)sc2cc(O)ccc12)NO", 665],
  ["O=C(CCCCCCNC(=O)c1c(-c2ccc(O)cc2)sc2cc(O)ccc12)NO", 2440],
  ["O=C(CCCCCCn1cc(-c2ccc(C(=O)c3c(-c4ccc(O)cc4)sc4cc(O)ccc34)cc2)nn1)NO", 1820]
]}

Next:
Entry O=C(CCCCCn1cc(-c2ccc(C(=O)c3c(-c4ccc(O)cc4)sc4cc(O)ccc34)cc2)nn1)NO : IC50 on Histone deacetylase 2 (Homo sapiens, UniProt Q92769) = 19200

----------
target: Histone deacetylase 9 (Homo sapiens); experiment: Inhibition of human HDAC9 using fluorogenic HDAC substrate
Sequence (Q9UKV0 whole entry): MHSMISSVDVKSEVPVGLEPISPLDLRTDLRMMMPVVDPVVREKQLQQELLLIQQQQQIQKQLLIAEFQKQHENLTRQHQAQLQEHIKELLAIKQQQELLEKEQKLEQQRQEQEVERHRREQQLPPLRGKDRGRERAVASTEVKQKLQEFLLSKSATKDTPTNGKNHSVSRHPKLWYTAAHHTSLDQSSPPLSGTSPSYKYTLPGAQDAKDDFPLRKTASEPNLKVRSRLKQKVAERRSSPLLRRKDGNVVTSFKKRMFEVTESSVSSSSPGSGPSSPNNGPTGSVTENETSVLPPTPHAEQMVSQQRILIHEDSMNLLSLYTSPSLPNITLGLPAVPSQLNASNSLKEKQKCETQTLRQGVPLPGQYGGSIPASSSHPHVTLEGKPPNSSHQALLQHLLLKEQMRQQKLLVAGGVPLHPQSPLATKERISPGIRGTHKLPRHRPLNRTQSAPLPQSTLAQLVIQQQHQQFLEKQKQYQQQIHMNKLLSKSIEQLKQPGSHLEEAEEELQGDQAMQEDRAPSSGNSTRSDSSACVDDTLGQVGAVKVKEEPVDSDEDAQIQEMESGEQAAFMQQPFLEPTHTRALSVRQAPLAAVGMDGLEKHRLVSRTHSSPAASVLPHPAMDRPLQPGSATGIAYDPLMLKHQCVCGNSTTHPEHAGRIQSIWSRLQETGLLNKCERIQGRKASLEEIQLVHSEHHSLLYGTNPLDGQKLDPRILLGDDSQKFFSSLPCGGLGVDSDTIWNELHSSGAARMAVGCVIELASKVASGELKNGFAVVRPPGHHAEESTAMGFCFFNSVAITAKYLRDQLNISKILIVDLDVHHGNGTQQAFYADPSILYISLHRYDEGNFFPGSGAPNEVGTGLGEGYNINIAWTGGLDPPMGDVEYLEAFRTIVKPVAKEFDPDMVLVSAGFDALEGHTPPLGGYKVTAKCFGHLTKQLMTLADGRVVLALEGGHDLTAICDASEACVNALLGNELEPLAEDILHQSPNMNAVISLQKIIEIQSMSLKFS
ASSAY READOUT: pIC50
Keep in mind that pIC50 stands for -log10 of concentration in molar terms.

The following compounds have reported results that may help.
{"columns": ["COMPOUND", "TARGET", "pIC50"],
 "data": [
  ["O=C(NO)c1ccc(CN2c3ccccc3CC[C@@H]3CCCC[C@H]32)cc1", "Histone deacetylase 9 (Homo sapiens)", 5.05],
  ["O=C(NO)c1ccc(Cn2c3c(c4cc(F)ccc42)CS(=O)(=O)CC3)cc1", "Histone deacetylase 9 (Homo sapiens)", 6.30],
  ["O=C(NO)c1ccc(Cn2c3c(c4ccccc42)CS(=O)(=O)CC3)cc1", "Histone deacetylase 9 (Homo sapiens)", 6.52],
  ["O=C(NO)c1ccc(CN2c3ccccc3CCC[C@@H]3CCCC[C@H]32)cc1", "Histone deacetylase 9 (Homo sapiens)", 4.89],
  ["O=C(NO)c1ccc(CN2c3ccccc3C[C@@H]3CCCC[C@H]32)cc1", "Histone deacetylase 9 (Homo sapiens)", 4.60],
  ["O=C(NO)c1ccc(CN2c3ccccc3C3C2CCS3(=O)=O)cc1 (stereo not given)", "Histone deacetylase 9 (Homo sapiens)", 6.70],
  ["O=C(NO)c1ccc(Cn2c3c(c4cc(F)ccc42)CSCC3)cc1", "Histone deacetylase 9 (Homo sapiens)", 6.10]
]}

# context switch: different compound, same pIC50
So, O=C(NO)c1ccc(Cn2c3c(c4cc(F)ccc42)C[S+]([O-])CC3)cc1 (stereo not given) ? Its pIC50 was 6.30

----------
biological target: Protein deacetylase HDAC6 (Homo sapiens, UniProt Q9UBN7); assay: Inhibition of HDAC6 (unknown origin) using (RHKK(Ac)AMC as substrate
Sequence (Q9UBN7 whole entry): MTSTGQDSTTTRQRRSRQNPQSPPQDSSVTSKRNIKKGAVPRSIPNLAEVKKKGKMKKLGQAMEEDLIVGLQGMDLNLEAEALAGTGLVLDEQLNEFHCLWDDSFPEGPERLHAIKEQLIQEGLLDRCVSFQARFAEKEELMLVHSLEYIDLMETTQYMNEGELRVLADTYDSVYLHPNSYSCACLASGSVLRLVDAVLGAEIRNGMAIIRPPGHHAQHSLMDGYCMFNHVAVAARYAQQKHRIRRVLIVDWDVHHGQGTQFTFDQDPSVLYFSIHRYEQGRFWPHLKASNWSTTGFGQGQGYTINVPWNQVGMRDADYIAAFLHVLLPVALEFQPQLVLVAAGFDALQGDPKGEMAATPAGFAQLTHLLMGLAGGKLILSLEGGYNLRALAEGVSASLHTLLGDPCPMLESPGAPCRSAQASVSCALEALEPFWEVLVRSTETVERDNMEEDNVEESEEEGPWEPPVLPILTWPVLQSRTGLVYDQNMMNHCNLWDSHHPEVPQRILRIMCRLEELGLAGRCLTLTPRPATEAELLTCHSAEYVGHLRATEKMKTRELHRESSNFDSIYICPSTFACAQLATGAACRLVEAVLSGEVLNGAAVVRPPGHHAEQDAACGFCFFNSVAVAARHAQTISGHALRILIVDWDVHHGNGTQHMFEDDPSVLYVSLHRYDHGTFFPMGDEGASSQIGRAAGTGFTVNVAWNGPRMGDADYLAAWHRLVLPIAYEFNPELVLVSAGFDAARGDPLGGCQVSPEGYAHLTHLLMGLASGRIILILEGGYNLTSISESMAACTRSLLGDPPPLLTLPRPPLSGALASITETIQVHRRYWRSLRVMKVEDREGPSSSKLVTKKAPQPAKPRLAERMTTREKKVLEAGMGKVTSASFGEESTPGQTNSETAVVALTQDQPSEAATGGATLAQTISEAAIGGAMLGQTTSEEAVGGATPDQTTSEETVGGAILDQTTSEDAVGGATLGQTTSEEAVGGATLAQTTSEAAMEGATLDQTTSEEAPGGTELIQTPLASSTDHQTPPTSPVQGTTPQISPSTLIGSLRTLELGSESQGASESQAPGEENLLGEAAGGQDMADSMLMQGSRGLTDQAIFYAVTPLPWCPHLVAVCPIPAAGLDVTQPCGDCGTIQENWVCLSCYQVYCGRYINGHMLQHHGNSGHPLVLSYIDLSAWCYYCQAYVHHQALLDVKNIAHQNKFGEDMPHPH
ASSAY READOUT: pIC50
Scale explanation: pIC50 corresponds to minus log10 of a concentration expressed in moles per litre.

The recorded pIC50 for entry CC1=CCC[C@@]2(C)CCC3=C(C)CC[C@@H](C[C@H]12)C3(C)C equals 4.10

----------
molecular target: Histone deacetylase 3 (Homo sapiens, UniProt O15379); assay: Inhibition of HDAC3 (unknown origin) using peptide substrate measured after 1 hr
Sequence (O15379 whole entry): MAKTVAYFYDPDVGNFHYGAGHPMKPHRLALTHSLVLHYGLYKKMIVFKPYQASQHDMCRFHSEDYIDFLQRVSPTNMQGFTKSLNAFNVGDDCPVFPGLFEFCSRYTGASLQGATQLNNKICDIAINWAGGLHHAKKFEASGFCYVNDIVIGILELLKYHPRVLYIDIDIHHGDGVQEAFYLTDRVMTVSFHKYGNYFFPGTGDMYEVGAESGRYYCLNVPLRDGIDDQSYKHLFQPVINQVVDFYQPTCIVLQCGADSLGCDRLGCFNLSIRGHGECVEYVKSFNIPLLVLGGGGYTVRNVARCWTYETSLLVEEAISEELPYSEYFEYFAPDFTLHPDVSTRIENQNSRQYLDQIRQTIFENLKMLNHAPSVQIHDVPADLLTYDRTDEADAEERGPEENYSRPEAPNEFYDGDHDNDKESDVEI
ASSAY READOUT: IC50 (µM)
Please respond with the number in µM and leave the unit unwritten.

The reported IC50 of the compound C=C(CC1c2ccccc2C(=C)CN1Cc1ccc(C(=O)Nc2ccccc2N)cc1)c1ccccc1 (stereo unspecified) was 2.7

----------
compounds and their reported log10 IC50
target: UniProt Q9UBN7; test: Inhibition of HDAC6 (unknown origin)
Please note: log10 values; quantity IC50; unit nM.

Some compounds with recorded log10 IC50:
{"columns": ["COMPOUND", "log10 IC50"],
 "data": [
  ["COc1cc(/C=C/C(=O)NO)ccc1OCCN(C)C(=O)c1ccccc1O", 2.63],
  ["COc1cc(/C=C/C(=O)NO)ccc1OCCCCNC(=O)c1ccccc1O", 2.56],
  ["CC(=O)SCCCCCC(NC(=O)OCc1ccccc1)C(=O)Nc1cccc2cccnc12 (configuration not stated)", 1.53],
  ["C[C@]12CC[C@@H]3c4ccc(O)cc4CC[C@H]3[C@@H]1CC[C@@]2(O)c1cn(CCCCCCC(=O)NO)nn1", 1.51],
  ["COCCOCC(=O)SCCCCCC(NC(=O)OCc1ccccc1)C(=O)Nc1cccc2cccnc12 (configuration not stated)", 1.46]
]}

Let us move to another entry and its log10 IC50.
COc1cc(/C=C/C(=O)NO)ccc1OCCCCN(C)C(=O)c1ccccc1O yielded log10 IC50 of 2.58

----------
molecular target: Histone deacetylase 11 (Homo sapiens, UniProt Q96DB2); experiment: Inhibition of human HDAC11 using fluorogenic HDAC substrate
Sequence (Q96DB2 whole entry): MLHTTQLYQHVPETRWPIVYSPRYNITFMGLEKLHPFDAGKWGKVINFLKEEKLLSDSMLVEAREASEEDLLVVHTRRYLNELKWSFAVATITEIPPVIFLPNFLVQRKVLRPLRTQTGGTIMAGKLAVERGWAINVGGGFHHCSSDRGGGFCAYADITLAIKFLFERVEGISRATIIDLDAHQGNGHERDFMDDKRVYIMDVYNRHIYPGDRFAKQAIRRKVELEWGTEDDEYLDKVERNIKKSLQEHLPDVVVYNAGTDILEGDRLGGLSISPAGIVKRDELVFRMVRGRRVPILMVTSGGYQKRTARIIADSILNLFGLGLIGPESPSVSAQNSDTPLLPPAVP
ASSAY READOUT: log10(IC50) (log10 of the value in nM)
Form field - Quantity: IC50; Unit: nM; Scale: log10

{"columns": ["MOLECULE", "log10(IC50)"],
 "data": [
  ["O=C(NO)c1ccc(Cn2c3c(c4cc(F)ccc42)C[S+]([O-])CC3)cc1 (configuration not stated)", 2.70],
  ["O=C(NO)c1ccc(CN2c3ccccc3C[C@@H]3CCCC[C@H]32)cc1", 3.18],
  ["O=C(NO)c1ccc(CN2c3ccccc3CC[C@@H]3CCCC[C@H]32)cc1", 2.73],
  ["O=C(NO)c1ccc(CN2c3ccccc3C3C2CCS3(=O)=O)cc1 (configuration not stated)", 4.23]
]}

Query O=C(NO)c1ccc(CN2c3ccccc3C[C@@H]3CCCCC[C@H]32)cc1 yields log10(IC50) of 3.08

response.value for O=C(NO)c1ccc(CN2c3cc(C(F)(F)F)ccc3CCC[C@@H]3CCCC[C@H]32)cc1 (field: log10(IC50)) = 2.91

Record summary for O=C(NO)c1ccc(CN2c3ccccc3CCC[C@@H]3CCCC[C@H]32)cc1 : reported log10(IC50) = 3.38

----------
target: Histone deacetylase 8 (Homo sapiens, UniProt Q9BY41); assay: Inhibition of human HDAC8 using ZMTFAL as substrate measured after 90 mins by fluorescence assay
Sequence (Q9BY41 whole entry): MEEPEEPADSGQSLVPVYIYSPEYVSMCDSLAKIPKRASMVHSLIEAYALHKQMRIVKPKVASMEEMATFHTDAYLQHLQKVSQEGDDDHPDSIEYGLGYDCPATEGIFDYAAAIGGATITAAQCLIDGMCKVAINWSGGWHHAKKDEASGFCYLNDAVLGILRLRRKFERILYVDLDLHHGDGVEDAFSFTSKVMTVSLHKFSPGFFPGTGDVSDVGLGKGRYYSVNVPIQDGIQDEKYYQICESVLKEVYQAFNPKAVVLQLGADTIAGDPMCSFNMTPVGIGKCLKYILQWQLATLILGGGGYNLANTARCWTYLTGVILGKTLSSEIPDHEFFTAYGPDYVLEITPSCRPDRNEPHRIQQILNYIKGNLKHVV
ASSAY READOUT: IC50 (µM)
Give the quantity in µM, number only.

{"columns": ["STRUCTURE AS SMILES", "TARGET", "IC50 / µM"],
 "data": [
  ["O=C(NO)c1ccc(NC(=S)N/N=C/c2ccc(F)cc2)cc1", "Histone deacetylase 8 (Homo sapiens, UniProt Q9BY41)", 19.7]
]}

Moving on to another compound below.
Note to self: IC50 recorded for O=C(NO)c1ccc(NC(=S)N/N=C/c2ccccc2)cc1 was 27.6

----------
target: Histone deacetylase 1 (Homo sapiens, UniProt Q13547); assay: Inhibition of recombinant human FLAG/His-tagged HDAC1 expressed in baculovirus expression system using Boc-l-Lys(Ac)-AMC as substrate preincubated up to 3 hrs and measured after 35 mins by fluorescence assay
Sequence (Q13547 whole entry): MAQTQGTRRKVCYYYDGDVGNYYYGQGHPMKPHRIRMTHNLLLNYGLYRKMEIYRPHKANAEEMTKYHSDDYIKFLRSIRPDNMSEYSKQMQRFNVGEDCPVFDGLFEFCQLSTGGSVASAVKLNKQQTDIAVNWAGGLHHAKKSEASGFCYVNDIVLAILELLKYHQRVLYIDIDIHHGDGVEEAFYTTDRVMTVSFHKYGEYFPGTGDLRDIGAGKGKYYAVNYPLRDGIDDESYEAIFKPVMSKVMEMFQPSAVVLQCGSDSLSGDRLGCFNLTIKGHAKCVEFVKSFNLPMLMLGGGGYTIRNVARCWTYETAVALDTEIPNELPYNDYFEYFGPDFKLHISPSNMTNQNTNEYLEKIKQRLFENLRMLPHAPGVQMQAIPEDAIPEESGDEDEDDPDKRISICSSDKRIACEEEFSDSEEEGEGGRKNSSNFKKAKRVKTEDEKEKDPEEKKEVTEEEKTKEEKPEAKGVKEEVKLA
ASSAY READOUT: pIC50
In plain terms, pIC50 is the concentration in mol/L turned into minus its base-10 logarithm.

Completed entries (count: 3):
{"columns": ["STRUCTURE AS SMILES", "TEST RESULT"],
 "data": [
  ["O=C(CCCCCCCNC(=O)c1c(-c2ccc(O)cc2)sc2cc(O)ccc12)NO", 6.77],
  ["O=C(CCCCCCn1cc(-c2ccc(C(=O)c3c(-c4ccc(O)cc4)sc4cc(O)ccc34)cc2)nn1)NO", 5.99],
  ["O=C(CCCCCCNC(=O)c1c(-c2ccc(O)cc2)sc2cc(O)ccc12)NO", 6.22]
]}

Consider now this further compound.
Record O=C(CCCCCn1cc(-c2ccc(C(=O)c3c(-c4ccc(O)cc4)sc4cc(O)ccc34)cc2)nn1)NO . Reported pIC50: 6.08
